Assay: AUCall in dog at 2 mg/kg, iv
Format: ADME, organism-based, Canis lupus familiaris
Design: dose 2 mg/kg, route intravenous
Details: plasma
REPORTED_METRIC: AUC (ng·h/mL)

CHEMICAL_STRUCTURE: Cc1noc(-c2ccc3c(c2)c2c(n3CCCSc3cc(F)cc(F)c3)CCCC2)n1
UNIT_NAME: ng·h/mL
RECORDED_NUMBER: 1750

----------
Assay: AUCall in rat at 2 mg/kg, iv
Format: ADME, organism-based
Parameters: dose 2 mg/kg, route intravenous
Settings: plasma

MOLECULE: CCc1cc(CC)nc(OCCCn2c3c(c4cc(-c5nc(C)no5)ccc42)CCCC3)n1
AUC (ng·h/mL): 497
--
MOLECULE: Cc1noc(-c2ccc3c(c2)c2c(n3CCCOc3cc(F)cc(F)c3)CCCC2)n1
AUC (ng·h/mL): 404
--
MOLECULE: COC(=O)c1ccc2c(c1)c1c(n2CCCNc2nc(OC)cc(OC)n2)CCCC1
AUC (ng·h/mL): 521
--
MOLECULE: Cc1noc(-c2ccc3c(c2)c2c(n3CCCS(=O)(=O)N(C)C)CCCC2)n1
AUC (ng·h/mL): 520
--
MOLECULE: COc1cc(OC)nc(NCCCn2c3c(c4cc(S(C)(=O)=O)ccc42)CCCC3)n1
AUC (ng·h/mL): 902
--
MOLECULE: Cc1noc(-c2ccc3c(c2)c2c(n3CCCSc3cc(F)cc(F)c3)CCCC2)n1
AUC (ng·h/mL): 1180
--
MOLECULE: Cc1noc(-c2ccc3c(c2)c2c(n3CC(F)COc3cc(F)cc(F)c3)CCCC2)n1 (configuration not stated)
AUC (ng·h/mL): 691

----------
Assay: Tmax in rat at 20 mg/kg, po
Assay type: ADME, organism-based
Parameters: dose 20 mg/kg, route oral
Conditions: in vivo
Collected Tmax values appear next to each entry.
REPORTED_METRIC: Tmax (h)

COMPOUND: Cc1noc(-c2ccc3c(c2)c2c(n3CCCSc3cc(F)cc(F)c3)CCCC2)n1
UNIT_NAME: h
RECORDED_NUMBER: 2.33

COMPOUND: Cc1noc(-c2ccc3c(c2)c2c(n3CC(F)COc3cc(F)cc(F)c3)CCCC2)n1 (configuration not stated)
UNIT_NAME: h
RECORDED_NUMBER: 2.67

----------
Assay: Cmax in dog at 10 mg/kg, po
Assay type: ADME, organism-based, Canis lupus familiaris
Design: dose 10 mg/kg, route oral
Settings: in vivo

CHEMICAL_STRUCTURE: Cc1noc(-c2ccc3c(c2)c2c(n3CCCSc3cc(F)cc(F)c3)CCCC2)n1
UNIT_NAME: ng/mL
Cmax: 625

----------
Assay: Apparent volume of distribution in rat at 2 mg/kg, iv
Format: ADME, organism-based
Design: dose 2 mg/kg, route intravenous
Settings: in vivo, read-out: Vz
Field 'label' (enum: rule met / rule not met). Set to rule met when Vd is strictly under 10 L/kg; else rule not met.

COMPOUND: Cc1noc(-c2ccc3c(c2)c2c(n3CCCSc3cc(F)cc(F)c3)CCCC2)n1
DISCRETE_LABEL: rule met
//
COMPOUND: COC(=O)c1ccc2c(c1)c1c(n2CCCNc2nc(OC)cc(OC)n2)CCCC1
DISCRETE_LABEL: rule not met
//
COMPOUND: Cc1noc(-c2ccc3c(c2)c2c(n3CC(F)COc3cc(F)cc(F)c3)CCCC2)n1 (configuration not stated)
DISCRETE_LABEL: rule met
//
COMPOUND: CCc1cc(CC)nc(OCCCn2c3c(c4cc(-c5nc(C)no5)ccc42)CCCC3)n1
DISCRETE_LABEL: rule not met
//
COMPOUND: Cc1noc(-c2ccc3c(c2)c2c(n3CCCS(=O)(=O)N(C)C)CCCC2)n1
DISCRETE_LABEL: rule met
//
COMPOUND: COc1cc(OC)nc(NCCCn2c3c(c4cc(S(C)(=O)=O)ccc42)CCCC3)n1
DISCRETE_LABEL: rule met
//
COMPOUND: Cc1noc(-c2ccc3c(c2)c2c(n3CCCOc3cc(F)cc(F)c3)CCCC2)n1
DISCRETE_LABEL: rule not met

----------
Experiment: Oral bioavailability in dog at 10 mg/kg
Format: ADME, organism-based, Canis lupus familiaris
Conditions: in vivo

CHEMICAL_STRUCTURE: Cc1noc(-c2ccc3c(c2)c2c(n3CCCSc3cc(F)cc(F)c3)CCCC2)n1
bioavailability: 34%

----------
Test: Oral bioavailability in rat at 20 mg/kg
Format: ADME, organism-based
Settings: in vivo

MOLECULE: Cc1noc(-c2ccc3c(c2)c2c(n3CC(F)COc3cc(F)cc(F)c3)CCCC2)n1 (stereo unspecified)
bioavailability [%]: 38
